Test: AUC(0 to last) in CD-1 mouse at 50 mg/kg, po measured upto 24 hrs by LC-MS/MS analysis
Assay type: ADME, organism-based
Parameters: dose 50 mg/kg, time < 24 hrs, route po
Details: CD-1, mouse, in vivo
recorded.metric: AUC(0-t) at 24 h (ng·h/mL)
Dear colleague, please return just the value in ng·h/mL, with no unit written.

The measured AUC(0-t) at 24 h associated with CCn1cc(-c2cc(Cn3ccnc3)cc3c2CCN([C@H](c2cc(OC)ccn2)C2CC2)C3=O)c(C(F)(F)F)n1 reads 20100

====

Assay: Kinetic aqueous solubility of the compound in PBS at pH 7.4 at 100 uM incubated for 1 hr by UV-visible analysis
Type: physicochemical
Details: buffer, pH 7.4, 1 h, 100 µM
recorded.metric: Kinetic_solubility (µM)
Provide the reading as a plain figure in µM.

• COc1cnc2c(c1)[C@@H](N1CCOc3c(cc(Cn4ccnc4)cc3-c3cn(C)nc3C(F)(F)F)C1=O)CCC2 = 74
• CCn1cc(-c2cc(Cn3ccnc3C)cc3c2OCCN([C@H]2CCOc4ccc(OC)cc42)C3=O)c(C(F)(F)F)n1 = 34
• CCn1cc(-c2cc(Cn3ccnc3)cc3c2OCCN([C@H]2CCOc4ccc(OC)cc42)C3=O)c(C(F)(F)F)n1 = 93

Query compound follows.
Lab note: COc1cc(CN2CCOc3c(cc(Cn4ccn(C)c4=N)cc3-c3ccc(F)cc3C)C2=O)cc(OC)c1 gave Kinetic_solubility of 42
